# testProtocol: Chemical stability in 90% deionized water after 24 hrs by NMR spectroscopy
# Assay type: physicochemical
# experimentalConditions: read-out: Stability
quantityName: remaining at 24 h (%)

Challenge: What does the data say about its remaining at 24 h? Entry: COC[C@@H]1CCCN1S(=O)(=O)c1ccc2c(c1)C(=O)C1=NCC3(CCCC3)CN12
Response given: 87

Challenge: Return reported remaining at 24 h; argument: O=C1C2=NCC3(CCC3)CN2c2ccc(S(=O)(=O)N3CCC[C@H]3COc3ccccc3)cc21
Response given: 69

Challenge: Any idea what remaining at 24 h was measured for COC[C@@H]1CCCN1S(=O)(=O)c1ccc2c(c1)C(=O)C1=NCC3(CCC3)CN12 ?
Response given: 74

Challenge: Please report the recorded remaining at 24 h for O=C1C2=NCC3(CCCC3)CN2c2ccc(S(=O)(=O)N3CCC[C@H]3COc3ccccc3)cc21 .
Response given: 89

Challenge: Given COC[C@@H]1CCCN1S(=O)(=O)c1ccc2c(c1)C(=O)C1=NCC3(CCCCC3)CN12 , state its recorded remaining at 24 h.
Response given: 71

Challenge: Which remaining at 24 h value is on record for O=C1C2=NCC3(CCCCC3)CN2c2ccc(S(=O)(=O)N3CCC[C@H]3COc3ccccc3)cc21 ?
Response given: 72
